# Test system: THP-1
# Measurement notes: Antiinflammatory activity in PMA-treated human THP1 cells assessed as inhibition of LPS-induced IL-6 production after 24 hrs by ELISA
# Assay type: functional, cell-based
# Condition set: THP-1, 24 h
Measured parameter: IC50

INSERT INTO assay_data (structure_as_smiles, result) VALUES
  ('COc1ccc2c(c1)[C@@]1(C)[C@@H](CO2)CON1C', '1120 nM');

---

# Tested on: THP-1
# Measurement notes: Cytotoxicity against human THP1 cells assessed as decrease in cell proliferation after 24 to 48 hrs by MTT assay
# Format: cell-based
pIC50: −log10 of the molar value.
Measured parameter: pIC50

INSERT INTO assay_data (structure_as_smiles, result) VALUES
  ('COc1ccc2c(c1)[C@@]1(C)[C@@H](CO2)CON1C', '< 4.00');
